experimentalTarget: Inosine-5'-monophosphate dehydrogenase (Cryptosporidium parvum, UniProt Q8T6T2)
Sequence (Q8T6T2 whole entry): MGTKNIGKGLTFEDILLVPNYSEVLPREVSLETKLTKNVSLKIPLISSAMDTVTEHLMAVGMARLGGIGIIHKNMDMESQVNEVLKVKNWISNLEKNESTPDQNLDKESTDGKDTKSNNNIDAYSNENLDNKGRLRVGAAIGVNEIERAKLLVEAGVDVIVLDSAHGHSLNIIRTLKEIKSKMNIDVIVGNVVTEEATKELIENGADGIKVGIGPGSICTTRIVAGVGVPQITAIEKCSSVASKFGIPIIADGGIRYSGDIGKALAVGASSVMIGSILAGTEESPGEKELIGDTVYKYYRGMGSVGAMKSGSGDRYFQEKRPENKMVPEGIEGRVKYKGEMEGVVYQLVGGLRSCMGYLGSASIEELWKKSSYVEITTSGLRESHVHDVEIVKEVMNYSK
measurementDescription: Inhibition of Cryptosporidium parvum recombinant IMPDH expressed in Escherichia coli assessed as production of NADH incubated for 5 mins by fluorescence based assay
Mark True only for IC50 values smaller than 40 nM; exact matches and larger values are False.

Before answering, review these 5 worked examples.
>>> assignedcategory("C=C(C)c1cccc(C(C)(C)NC(=O)N(C)c2ccc(Cl)cc2)c1")
"False"
>>> assignedcategory("CC(C)c1cccc(C(C)(C)NC(=O)Nc2ccc3ccccc3c2)c1")
"False"
>>> assignedcategory("C=C(C)c1cccc(C(C)(C)NC(=O)Nc2ccc(Br)cc2)c1")
"True"
>>> assignedcategory("C/C(=N\\O)c1cccc(C(C)(C)NC(=O)Nc2ccc3cccnc3c2)c1")
"True"
>>> assignedcategory("C=C(C)c1cccc(C(C)(C)NC(=O)Nc2ccc(Cl)c(Cl)c2)c1")
"True"

# TODO verify IC50 < 40 nM strictly for this compound: CC(=O)c1cccc(C(C)NC(=O)Nc2ccc(Cl)cc2)c1 (configuration not stated) False

Lab note: confirm whether the reported IC50 for this compound is below 40 nM, equality not counting. compound: `C=C(C)c1cccc(C(C)(C)NC(=O)Nc2ccccc2Cl)c1` False

Could you please tell me whether IC50 recorded for `C/C(=N\O)c1cccc(C(C)(C)NC(=O)Nc2ccc3ccccc3c2)c1` is less than 40 nM? True

Consider `C=C(C)c1cccc(C(C)(C)NC(=O)Nc2ccc(Cl)cc2)c1` . Does its IC50 lie strictly below 40 nM? True

Is IC50 of `C=C(C)c1cccc(C(C)(C)NC(=O)Nc2ccc3ncccc3c2)c1` strictly below 40 nM? True

For `CC(=O)c1cccc(C(C)(C)NC(=O)Nc2ccc(Cl)c(C(F)(F)F)c2)c1` , is the recorded IC50 below the cut-off of 40 nM? True

Is IC50 of `CC(C)(NC(=O)Nc1ccc2[nH]c(=O)[nH]c2c1)c1ccccc1` strictly below 40 nM? False

Determine if `C=C(C)c1cccc(C(C)(C)NC(=O)Nc2ccc3ccccc3n2)c1` shows IC50 strictly lower than 40 nM. False

IC50 strictly < 40 nM for this compound? `C=C(C)c1cccc(C(C)(C)NC(=O)Nc2ccccc2)c1` False
